From: paper PMC7354613

Field: CC50 at 48 h. Provide a value for each of the molecules that follow.
# test.name: Cytotoxicity, CellTiter-Blue, OM-10.1 cells
# Format: cell-based
# stated.conditions: human, OM-10.1 cells; 48 h treatment; mean ± SD, n = 3
Give bare numbers, in nM.

[
  {
    "molecule": "O=C(/C=C/c1cccc(S(=O)(=O)Nc2ccccc2)c1)NO [Belinostat]",
    "measured.parameter": "CC50 at 48 h",
    "readout.number": 2700
  }
]

Exam item: Indicate the recorded CC50 at 48 h value for this molecule: CC(C)[C@H](C(=O)Nc1ccc(C(=O)NO)cc1)c1ccccc1 [AR-42]
Marked response: 400

====

# test.name: Cytotoxicity, CellTiter-Blue, U1 cells
# Type: cell-based
# stated.conditions: human, 48 h treatment, mean ± SD, n = 3
Field: CC50 at 48 h. Provide a value for each of the compounds that follow.

Please review the following examples before continuing.
[
  {
    "compound": "CC(C)C1C(=O)NC(CO)Cc2c[nH]c3cccc(c23)N1C (single isomer, unassigned; (-)) [(-)-Indolactam V]",
    "CC50 at 48 h": "> 8 µM"
  },
  {
    "compound": "CC(C)[C@H]1C(=O)N[C@H](CO)Cc2cc(NC(=O)/C=C/C=C/c3ccc(C(F)(F)F)cc3)ccc2N1C",
    "CC50 at 48 h": "> 8 µM"
  },
  {
    "compound": "CCN(CC)Cc1ccc2cc(COC(=O)Nc3ccc(C(=O)NO)cc3)ccc2c1",
    "CC50 at 48 h": "~4 µM"
  },
  {
    "compound": "O=C(/C=C/c1cccc(S(=O)(=O)Nc2ccccc2)c1)NO",
    "CC50 at 48 h": "> 8 µM"
  },
  {
    "compound": "CC(C)[C@H](C(=O)Nc1ccc(C(=O)NO)cc1)c1ccccc1",
    "CC50 at 48 h": "~8 µM"
  },
  {
    "compound": "CC(=O)O[C@@]12C[C@@H](C)[C@@]3(O)[C@@H](C=C(CO)C[C@]4(O)C(=O)C(C)=C[C@@H]34)[C@@H]1C2(C)C",
    "CC50 at 48 h": "> 8 µM"
  }
]

Continue with the compound presented below.
Exam item: Indicate the recorded CC50 at 48 h value for this compound: CN(C)Cc1c(C(=O)NCCOc2ccc(C(=O)NO)cc2)oc2ccccc12
Marked response: ~8 µM

====

# test.name: Cytotoxicity, CellTiter-Blue, J-Lat 10.6 cells
# Type: cell-based
# stated.conditions: human, 48 h treatment, mean ± SD, n = 3
measured.parameter: CC50 at 48 h

Please review the following examples before continuing.
[
  {
    "compound": "CC(=O)O[C@@]12C[C@@H](C)[C@@]3(O)[C@@H](C=C(CO)C[C@]4(O)C(=O)C(C)=C[C@@H]34)[C@@H]1C2(C)C [Prostratin]",
    "result": "> 8000 nM"
  },
  {
    "compound": "O=C(/C=C/c1cccc(S(=O)(=O)Nc2ccccc2)c1)NO [Belinostat]",
    "result": "1400 nM"
  },
  {
    "compound": "CC(C)[C@H]1C(=O)N[C@H](CO)Cc2cc(NC(=O)/C=C/C=C/c3ccc(C(F)(F)F)cc3)ccc2N1C [TPPB]",
    "result": "> 8000 nM"
  },
  {
    "compound": "CN(C)Cc1c(C(=O)NCCOc2ccc(C(=O)NO)cc2)oc2ccccc12 [PCI-24781]",
    "result": "400 nM"
  },
  {
    "compound": "CCN(CC)Cc1ccc2cc(COC(=O)Nc3ccc(C(=O)NO)cc3)ccc2c1 [Givinostat]",
    "result": "930 nM"
  }
]

// each listed compound needs a value for CC50 at 48 h
1. CC(C)[C@H](C(=O)Nc1ccc(C(=O)NO)cc1)c1ccccc1 [AR-42]
2. CC(C)C1C(=O)NC(CO)Cc2c[nH]c3cccc(c23)N1C (single isomer, unassigned; (-)) [(-)-Indolactam V]

Marked response:
1: 450 nM; 2: > 8000 nM

====

Field: pEC50. Provide a value for each of the compounds that follow.
# Test system: J-Lat A2 cells
# test.name: HIV reactivation, GFP expression by flow cytometry, J-Lat A2 cells
# Assay type: cell-based, HIV-1
# stated.conditions: Human immunodeficiency virus 1, J-Lat A2, 48 h, read-out: EC50 HIV activation J-Lat A2
Give bare numbers, as −log10 of the molar value.

// each listed compound needs a value for pEC50
1. CN(C)Cc1c(C(=O)NCCOc2ccc(C(=O)NO)cc2)oc2ccccc12
2. CC(C)[C@H]1C(=O)N[C@H](CO)Cc2cc(NC(=O)/C=C/C=C/c3ccc(C(F)(F)F)cc3)ccc2N1C
3. CC(=O)O[C@@]12C[C@@H](C)[C@@]3(O)[C@@H](C=C(CO)C[C@]4(O)C(=O)C(C)=C[C@@H]34)[C@@H]1C2(C)C
4. O=C(/C=C/c1cccc(S(=O)(=O)Nc2ccccc2)c1)NO
5. CC(C)[C@H](C(=O)Nc1ccc(C(=O)NO)cc1)c1ccccc1
6. CC(C)C1C(=O)NC(CO)Cc2c[nH]c3cccc(c23)N1C (single isomer, unassigned; (-)) [(-)-Indolactam V]
7. CCN(CC)Cc1ccc2cc(COC(=O)Nc3ccc(C(=O)NO)cc3)ccc2c1

Marked response:
[6.42, 6.31, 6.06, 6.03, 6.36, 6.49, 6.15]

====

# test.name: Cytotoxicity, CellTiter-Blue, J-Lat A2 cells
# Format: cell-based
# stated.conditions: human, 48 h treatment, mean ± SD, n = 3
measured.parameter: CC50 at 48 h

// each listed compound needs a value for CC50 at 48 h
1. CCN(CC)Cc1ccc2cc(COC(=O)Nc3ccc(C(=O)NO)cc3)ccc2c1
2. CC(C)C1C(=O)NC(CO)Cc2c[nH]c3cccc(c23)N1C (single isomer, unassigned; (-)) [(-)-Indolactam V]
3. CN(C)Cc1c(C(=O)NCCOc2ccc(C(=O)NO)cc2)oc2ccccc12
4. CC(C)[C@H]1C(=O)N[C@H](CO)Cc2cc(NC(=O)/C=C/C=C/c3ccc(C(F)(F)F)cc3)ccc2N1C

Marked response:
1: 1.2 µM; 2: > 8 µM; 3: 0.54 µM; 4: > 8 µM

====

# test.name: Cytotoxicity, CellTiter-Blue, J-Lat A2 cells
# Type: cell-based
# stated.conditions: human, 48 h treatment, mean ± SD, n = 3
measured.parameter: CC50 at 48 h (nM)
One number for each entry, in nM.

// each listed molecule needs a value for CC50 at 48 h
1. O=C(/C=C/c1cccc(S(=O)(=O)Nc2ccccc2)c1)NO
2. CC(C)[C@H](C(=O)Nc1ccc(C(=O)NO)cc1)c1ccccc1

Marked response:
1400
530

====

# Tested on: ACH-2 cells latently infected with HIV-1
# test.name: HIV reactivation, Gag p24 ELISA of supernatant, ACH-2 cells
# Assay type: cell-based
# stated.conditions: Human immunodeficiency virus 1, ACH-2, 48 h, read-out: EC50 HIV activation ACH-2
measured.parameter: EC50 (nM)
One number for each entry, in nM.

Please review the following examples before continuing.
[
  {
    "compound": "CC(C)[C@H](C(=O)Nc1ccc(C(=O)NO)cc1)c1ccccc1 [AR-42]",
    "assay.system": "ACH-2 cells latently infected with HIV-1",
    "unit.abbrev": "nM",
    "EC50": 240
  },
  {
    "compound": "CN(C)Cc1c(C(=O)NCCOc2ccc(C(=O)NO)cc2)oc2ccccc12 [PCI-24781]",
    "assay.system": "ACH-2 cells latently infected with HIV-1",
    "unit.abbrev": "nM",
    "EC50": 370
  },
  {
    "compound": "CC(C)[C@H]1C(=O)N[C@H](CO)Cc2cc(NC(=O)/C=C/C=C/c3ccc(C(F)(F)F)cc3)ccc2N1C [TPPB]",
    "assay.system": "ACH-2 cells latently infected with HIV-1",
    "unit.abbrev": "nM",
    "EC50": 70
  }
]

// each listed compound needs a value for EC50
1. O=C(/C=C/c1cccc(S(=O)(=O)Nc2ccccc2)c1)NO [Belinostat]
2. CC(=O)O[C@@]12C[C@@H](C)[C@@]3(O)[C@@H](C=C(CO)C[C@]4(O)C(=O)C(C)=C[C@@H]34)[C@@H]1C2(C)C [Prostratin]
3. CC(C)C1C(=O)NC(CO)Cc2c[nH]c3cccc(c23)N1C (single isomer, unassigned; (-)) [(-)-Indolactam V]
4. CCN(CC)Cc1ccc2cc(COC(=O)Nc3ccc(C(=O)NO)cc3)ccc2c1 [Givinostat]

Marked response:
1: 440; 2: 310; 3: 180; 4: 320

====

# test.name: Cytotoxicity, CellTiter-Blue, OM-10.1 cells
# Assay type: cell-based
# stated.conditions: human; 48 h treatment; mean ± SD, n = 3
measured.parameter: CC50 at 48 h

Exam item: Indicate the recorded CC50 at 48 h value for this compound: CC(C)C1C(=O)NC(CO)Cc2c[nH]c3cccc(c23)N1C (single isomer, unassigned; (-)) [(-)-Indolactam V]
Marked response: > 8 µM
